Assay: Compound analysis: liver, adipose and plasma concentrations 3 days after a single oral dose
Assay type: in vivo, female C57BL/6 mice
Conditions: female, C57BL/6, mouse, in vivo, po, 25 µg/kg bw, oral dose 25 µg/kg bw; 3 days after single oral dose; read-out: Plasma concentration
Parameter measured: concentration at 3 days

Clc1cc2c(cc1Cl)Oc1cc(Cl)c(Cl)cc1O2 [TCDD, 2,3,7,8-tetrachlorodibenzodioxin, reference compound] = 0.108 ng/g

// next item, concentration at 3 days requested
Enquiry: I have this compound here, `Clc1cc2c(cc1Cl)Oc1c(cc(Cl)c(Cl)c1Cl)O2` , and I need its recorded concentration at 3 days.
Return: 0.052 ng/g
